test system: HCT-116 colon; assay: NCI-60 one-dose screen, 48 h; conditions: 10 µM unless noted
The panel holds about 83,000 compounds, 20% with a hit somewhere; the sample as a whole holds those more often. Activity calls are given as the source filed them. How the source made its calls: active means growth percent below 10; inactive means the rest.
Classes used: true (1) = active, false (0) = inactive

[[record]]
item_smiles = "c1ccc(-c2cn3ccnc3c(-c3ccc4c(c3)ncn4C3CCCCC3)n2)cc1"
label = "false (0)"

[[record]]
item_smiles = "COc1ccc(/C=C/C(=O)C(CC2CCC2)C(=O)/C=C/c2ccc(OC)c(OC)c2)cc1OC"
label = "true (1)"

[[record]]
item_smiles = "COc1cc(NCC(=O)Nc2cc(Nc3ccc(C)cc3)ncn2)c(Cl)c(OC)c1Cl"
label = "false (0)"

[[record]]
item_smiles = "C=C1C(=O)O[C@H]2[C@H]1CC/C(COC(=O)n1ccnc1)=C\\CC[C@@]1(C)O[C@@H]21"
label = "false (0)"

[[record]]
item_smiles = "O=C(Nc1ccc2ncnc(Nc3ccc(F)c(Cl)c3)c2c1)c1ccccc1"
label = "false (0)"

[[record]]
item_smiles = "C=C(C)[C@@H]1CCC=C2CC[C@]3(C)[C@H](CC[C@@H]4[C@@]5(C)CCCNC(C)(C)[C@@H]5CC[C@]43C)[C@H]21"
label = "true (1)"

[[record]]
item_smiles = "CCOC(=O)CC[C@H](NC(=O)c1ccc(NC)c2ccccc12)C(=O)OCC"
label = "false (0)"

[[record]]
item_smiles = "C=C1C(=O)O[C@H]2[C@H]1CC/C(COC(=O)CCC(=O)OC/C1=C/CC[C@@]3(C)O[C@H]3[C@H]3OC(=O)C(=C)[C@@H]3CC1)=C\\CC[C@@]1(C)O[C@@H]21"
label = "true (1)"


====

tested on: MALME-3M melanoma; assay: NCI-60 one-dose screen, 48 h; conditions: 10 µM unless noted
The panel holds about 83,000 compounds, 20% with a hit somewhere; the sample as a whole holds those more often. Activity calls are given as the source filed them. Rule for the calls: active = growth percent below 10; inactive = the rest.
Classes used: active, inactive

[[record]]
compound = "S=C(Nc1ccccc1)c1ccccn1"
target_entity = "MALME-3M melanoma"
label = "inactive"

[[record]]
compound = "CCCCc1nc(Cl)c(C2CC(c3ccc(Cl)cc3)=NN2c2cc(Cl)cc(Cl)c2)[nH]1 (centres undefined)"
target_entity = "MALME-3M melanoma"
label = "inactive"

[[record]]
compound = "COc1cc(-c2cn(-c3ccc(Cl)c(Cl)c3)c(=O)[nH]2)cc(OC)c1OC"
target_entity = "MALME-3M melanoma"
label = "inactive"

[[record]]
compound = "Cc1c(C(=O)Nc2nc3ccccc3[nH]2)cnn1-c1ccccn1"
target_entity = "MALME-3M melanoma"
label = "inactive"

[[record]]
compound = "CCCCn1c(=O)c(/C=C/C(=O)/C=C/c2cc3ccccc3n(CCCC)c2=O)cc2ccccc21"
target_entity = "MALME-3M melanoma"
label = "active"

[[record]]
compound = "CC(C)C[C@H](C(=O)O)N(C)C(=O)[C@@H]1CCCN1C(=O)[C@H](C)OC(=O)[C@H](CCC(N)=O)NC(=O)[C@@H]1CCC(=O)N1"
target_entity = "MALME-3M melanoma"
label = "inactive"

[[record]]
compound = "COc1ccc(-c2cc(-c3nnc(SCC(=O)Nc4ccc(C(C)=O)cc4)o3)c3ccccc3n2)cc1"
target_entity = "MALME-3M melanoma"
label = "active"

[[record]]
compound = "C#Cc1ccccc1NC(=O)c1sc2nc3c(cc2c1N)CCCCCC3"
target_entity = "MALME-3M melanoma"
label = "active"

[[record]]
compound = "COC(=O)/C=C/c1cc(OC(C)=O)c2c(c1)C(C(=O)OC)C(c1ccc(OC(C)=O)c(OC(C)=O)c1)O2 (centres undefined)"
target_entity = "MALME-3M melanoma"
label = "inactive"


====

system: UACC-257 melanoma; assay: NCI-60 one-dose screen, 48 h; conditions: 10 µM unless noted
Compounds without any hit were thinned out: in the full panel of roughly 83,000, 20% have a hit. Activity calls are given as the source filed them. Rule for the calls: active = growth percent below 10; inactive = the rest.
Classes used: t for active, f for inactive

[[record]]
compound = "COc1cc(NCC(=O)Nc2cc(Nc3cccc(C(F)(F)F)c3)ncn2)c(Cl)c(OC)c1Cl"
label = "f"

[[record]]
compound = "Cc1nnc(/N=C2\\NC(=O)/C(=C/c3ccsc3)S2)s1"
label = "f"

[[record]]
compound = "Oc1ccc(CNNc2ccnc3c(O)cccc23)c2cccnc12"
label = "f"

[[record]]
compound = "O=C1NN(c2ccccc2)C(c2ccc(Cl)cc2)N2CCC[C@H]12 (stereo partly specified)"
label = "f"

[[record]]
compound = "CC(C)(C)CC(C)(C)Cc1ccc(OCCOCC[N+](C)(C)Cc2ccccc2)cc1"
label = "t"

[[record]]
compound = "COc1cc(F)c(-c2nc3c(C)cccc3n2Cc2c(F)cccc2F)c(F)c1"
label = "f"

[[record]]
compound = "Cc1cccc(C)c1NC(=O)CN(CC(C)C)CC(O)COc1ccccc1 (stereo unspecified)"
label = "f"

[[record]]
compound = "CS(=O)(=O)O[C@@H]1C(=O)N(c2cc3c4ccccc4ccc3c3ccccc23)[C@H]1c1ccc(F)cn1"
label = "f"

[[record]]
compound = "COc1ccc(Cl)c([N+](=O)[O-])c1"
label = "f"

[[record]]
compound = "Cc1c(Cl)cccc1NC(=O)c1sc2nc3c(cc2c1N)COCC3"
label = "f"

[[record]]
compound = "O=C(Nc1nc(-c2ccccc2)cs1)c1cc(-c2ccc(Br)cc2)nc2ccccc12"
label = "f"

[[record]]
compound = "COc1cc(C(C)c2ccc3c(ccn3C)c2)cc(OC)c1OC (stereo unspecified)"
label = "f"

[[record]]
compound = "Cc1c(C(=O)Nc2nc3ccccc3[nH]2)cnn1-c1ccccn1"
label = "f"

[[record]]
compound = "Cc1ccc(C2CC(c3ccc(Nc4nc(NCCO)nc(NCCO)n4)cc3)=NN2c2ccc(Cl)cc2)cc1 (stereo unspecified)"
label = "f"

[[record]]
compound = "CC1CCCN(CCCCCOc2ccc3oc4ccccc4c(=O)c3c2)C1 (stereo unspecified)"
label = "t"

[[record]]
compound = "NCCCn1c2c(c3cc(-c4ccn[nH]4)ccc3c1=O)C(=O)c1ccccc1-2"
label = "f"

[[record]]
compound = "Cc1cnc(-c2ccc(-c3ccc(NC(=O)Nc4c(F)cc(F)cc4F)cc3F)c3c2C(=O)NC3)[nH]1"
label = "f"

[[record]]
compound = "Nc1c(C(=O)Nc2ccccn2)sc2nc3c(cc12)CCCCCC3"
label = "f"

[[record]]
compound = "N#Cc1c(-c2ccc(F)cc2)nc(N=Nc2c(O)[nH]c3ccc(Cl)cc23)nc1N1CCOCC1"
label = "f"

[[record]]
compound = "O=C1CCC23OC(C(O)c4ccccc4N12)C1C(Br)=NOC13 (stereo unspecified)"
label = "f"

[[record]]
compound = "C#C[C@@]1(O)[C@@H](CO)O[C@@H](n2cc(-c3ccco3)c3c(N)ncnc32)[C@@H]1O"
label = "f"


====

system: COLO 205 colon; experiment: NCI-60 one-dose screen, 48 h; details: 10 µM unless noted
This is part of a sample that, as a whole, favours compounds with a hit. Of some 83,000 tested, about 20% had one in any assay. Active and inactive are the calls of the source. Rule for the calls: active = growth percent below 10; inactive = the rest.
Classes used: active, inactive

[[record]]
item_smiles = "CC(C)C[C@H](C(=O)O)N(C)C(=O)[C@@H]1CCCN1C(=O)[C@H](C)OC(=O)[C@H](CCC(N)=O)NC(=O)[C@@H]1CCC(=O)N1"
target_entity = "COLO 205 colon"
label = "inactive"

[[record]]
item_smiles = "CC(C)CSc1nc(Nc2ccccc2)c(C#N)c(-c2ccc(F)cc2)n1"
target_entity = "COLO 205 colon"
label = "inactive"

[[record]]
item_smiles = "NC(=N\\N=C\\c1ccccc1O)/C(N)=N/N=C/c1ccccc1O"
target_entity = "COLO 205 colon"
label = "inactive"

[[record]]
item_smiles = "COC(=O)c1oc2c(C(=O)/C=C/c3ccc(OC)cc3)c(OCCCN3CCCCC3)ccc2c1C"
target_entity = "COLO 205 colon"
label = "inactive"

[[record]]
item_smiles = "Cc1c(Cl)cccc1NC(=O)c1sc2nc3c(cc2c1N)CCCCCC3"
target_entity = "COLO 205 colon"
label = "active"


====

Each entry below lists one item and its recorded growth value.
test system: HOP-62 NSCLC; assay: NCI-60 one-dose screen, 48 h (100 = growth as untreated, 0 = no growth, -100 = all killed); conditions: 10 µM unless noted
Compounds without any hit were thinned out: in the full panel of roughly 83,000, 20% have a hit. Active and inactive are the calls of the source. The calls were made as follows: active = growth percent below 10; inactive = the rest.
Property name: growth

[[record]]
compound = "COC(=O)/C=C1\\SC(=Nc2cccc(Cl)c2)N(CCc2c[nH]c3ccccc23)C1=O"
result = "41.5% (inactive)"

[[record]]
compound = "O=C(Nc1ccc(S(=O)(=O)NC2CCCCCC2)cc1)C(c1ccccc1)S(=O)(=O)c1ccc(F)cc1 (centres undefined)"
result = "-17.4% (active)"

[[record]]
compound = "O=C(CCl)N1CCCc2ccccc21"
result = "107% (inactive)"

[[record]]
compound = "CC(=O)Nc1nc2c(c(N)c1C#N)C(c1cccc(Cl)c1)C1=C(CCCC1=O)N2c1sc2c(c1C#N)CCCC2 (centres undefined)"
result = "67.3% (inactive)"

[[record]]
compound = "COc1cc(C2=NN(c3ccccc3)C(c3cccc(Nc4ccnc5cc(C(F)(F)F)ccc45)c3)C2)cc(OC)c1OC (centres undefined)"
result = "88.8% (inactive)"

[[record]]
compound = "COC(=O)c1nc(-c2ccccc2)oc1S(=O)(=O)n1nc(-c2ccccc2)cc1N"
result = "101% (inactive)"

[[record]]
compound = "COCCOCCOCc1n(Cc2ccc3ccccc3n2)c2ccccc2[n+]1Cc1ccc2ccccc2n1"
result = "20.8% (inactive)"

[[record]]
compound = "C=C1C(=O)O[C@H]2[C@H]1CC/C(COC(=O)/C=C/c1cccnc1)=C\\CC[C@@]1(C)O[C@@H]21"
result = "72.4% (inactive)"

[[record]]
compound = "O=C1CCc2ccccc2N1"
result = "102% (inactive)"

